Test system: SNB-75 CNS
Experiment: NCI-60 one-dose screen, 48 h (100 = growth as untreated, 0 = no growth, -100 = all killed)
Settings: 10 µM unless noted
Compounds without any hit were thinned out: in the full panel of roughly 83,000, 20% have a hit.
Label rule, in plain words: growth of 80% and up is Condition met, under 80% is Condition not met.

(Q) # bool: growth of `COc1cc2c(cc1-c1c(C)noc1C)ncc1nc(C3CCCCC3)n([C@H](C)COC(F)F)c12` >= 80%
(A) Condition not met

(Q) # bool: growth of `C=C(C)C(=O)Nc1ccc(NC(C)C)cc1` >= 80%
(A) Condition met

====

System: IGROV1 ovarian
Test: NCI-60 one-dose screen, 48 h
Details: 10 µM unless noted
Description: Growth inhibition of the IGROV1 human tumor cell line is measured as a screen for anti-cancer activity. Cells are grown in 96 well plates and exposed to the test compound for 48 hours. Compounds are tested at a single concentration, which is 10^-5 M for most compounds. The reported endpoint is percent growth (GI% or GIPRCNT), where numbers from 0 - 100% represent growth inhibition, and numbers from -100% - 0 represent cell death. For example, a value of 40 represents 60% growth inhibition. […]
The panel holds about 83,000 compounds, 20% with a hit somewhere; the sample as a whole holds those more often. Active and inactive are the calls of the source. How the source made its calls: active means growth percent below 10; inactive means the rest.
The reply should be one of these categories: active, inactive

Cc1ccc(O)c(N2C(=NCc3ccco3)NS(=O)(=O)c3cnccc32)c1    inactive
CC(=O)c1cc2c(N)c(C(=O)Nc3cccc4ccccc34)sc2nc1C    inactive

(Q) So what was the verdict on `O=C(COc1cccc(/C=C2\COc3ccccc3C2=O)c1)Nc1nccs1` in this test?
(A) active

(Q) So what was the verdict on `O=C1C=C(OCC=C(Cl)Cl)C(=O)c2ccccc21` in this test?
(A) inactive

(Q) So what was the verdict on `COC(=O)c1ccc(Cn2cnc3c(N)ncnc32)cc1` in this test?
(A) inactive

(Q) So what was the verdict on `Nc1ccc(-c2cc3c(NCc4ccccc4)ncnc3s2)cc1` in this test?
(A) inactive

(Q) So what was the verdict on `CCCN1CCN(c2ccc3nc(-c4ccc5nc(-c6ccc(OCC)cc6)[nH]c5c4)[nH]c3c2)CC1` in this test?
(A) inactive

====

Test system: PC-3 prostate
Assay: NCI-60 one-dose screen, 48 h (100 = growth as untreated, 0 = no growth, -100 = all killed)
Details: 10 µM unless noted
Compounds without any hit were thinned out: in the full panel of roughly 83,000, 20% have a hit.
Task for the reader: assign each of the following compounds its reported growth.
Numbers only, in %.

Reference set, count: 2
COc1cccc2c1C(=O)c1c(O)c3c(c(O)c1C2=O)C[C@](O)(C(=O)CO)C[C@H]3O[C@@H]1C[C@@H](NC(=O)CCCCCN(C)C2(c3ccc(F)cc3)CC3CCC2C3)[C@H](O)[C@@H](C)O1 (stereo partly drawn)    -82.7
CCCOc1cc2ccccc2cc1C(=O)Nc1nc(NC)c2c(ccc3nccc32)[nH]1    -51.5

Can you give me growth for all of these, one by one?
1. C=CC(=O)Nc1cccc(-c2nc(SC)nc(NCCN3CCOCC3)c2C#N)c1
2. C[n+]1ccccc1/C=C/c1ccc2cccc(O)c2n1
3. Nc1n[nH]c2cc(F)c([C@@H]3Nc4ccc5[nH]ncc5c4[C@H]4C5CCC(C5)[C@@H]34)cc12 (stereo partly drawn)
4. CSc1nc(NCCN2CCOCC2)c(C#N)c(-c2cccc([N+](=O)[O-])c2)n1
5. COc1ccc(CN2c3ccccc3Sc3ccccc32)c(C(F)(F)F)c1

(A)
92.7
94.7
8.48
97.4
26.9

(Q) Entry `COc1cc2c(cc1O)CC[C@@H]1[C@@H]2CC[C@]2(C)[C@@H](OCCCN(C)C)CC[C@@H]12` : reported growth = ?
(A) -18.6

====

System: MDA-MB-435 melanoma
Assay: NCI-60 one-dose screen, 48 h
Settings: 10 µM unless noted
This is part of a sample that, as a whole, favours compounds with a hit. Of some 83,000 tested, about 20% had one in any assay. The source made the active and inactive calls. How the source made its calls: active means growth percent below 10; inactive means the rest.
The reply should be one of these categories: label 1 = active, label 0 = inactive

(Q) So what was the verdict on `Cc1nn(-c2cc(=O)[nH]c3ccccc23)c(N)c1C#N` in this test?
(A) label 0

(Q) So what was the verdict on `COc1cccc(-c2nn(C(C)(C)C)cc2-c2ccnc(NCCCNS(=O)(=O)c3cccc4ccccc34)c2)c1` in this test?
(A) label 0

(Q) So what was the verdict on `O=C(Nc1ccccc1Cl)c1ccc(NC2=C(Cl)C(=O)N(C3CCCCC3)C2=O)cc1` in this test?
(A) label 0

(Q) So what was the verdict on CCOc1cc2ncc(C#N)c(Nc3ccc(OCc4cccc(F)c4)c(Cl)c3)c2cc1NC(=O)CCCCC1CCSS1 (centres undefined) in this test?
(A) label 0

(Q) So what was the verdict on `COc1ccc(Nc2c3c4c(cccc4[nH]c2=O)C(=O)c2ccccc2-3)cc1` in this test?
(A) label 1

(Q) So what was the verdict on `O=[N+]([O-])c1ccc2c(c1)Cc1cc(F)ccc1-2` in this test?
(A) label 0

(Q) So what was the verdict on `Cc1cc(N2CCOCC2)nc(N[C@@H]2CCC[C@H](Nc3ccnc4cc(Cl)ccc34)C2)n1` in this test?
(A) label 1

(Q) So what was the verdict on `COc1ccc2c(c1)O/C(=C\c1cccc(OCC(=O)Nc3nc4c(s3)CCCC4)c1)C2=O` in this test?
(A) label 0

(Q) So what was the verdict on `OCCNc1nccc(N2CCN(c3ccnc4cc(Cl)ccc34)CC2)n1` in this test?
(A) label 1

====

Task for the reader: assign each of the following molecules its reported growth.
Test system: ACHN renal
Test: NCI-60 one-dose screen, 48 h (100 = growth as untreated, 0 = no growth, -100 = all killed)
Settings: 10 µM unless noted
About 83,000 compounds went through this panel and 20% of them were active in at least one assay; those are over-represented in the sample as a whole. Active and inactive are the calls of the source. How the source made its calls: active means growth percent below 10; inactive means the rest.

Reference set, count: 2
COc1cc(-c2nn(-c3ccc(C(=O)O)cc3)cc2C(=O)O)ccc1O    44.8% (inactive)
COc1ccc2c(c1)c(-c1nonc1-c1cn(C)c3ccccc13)cn2C    48.6% (inactive)

Can you give me growth for all of these, one by one?
1. Cn1cc(C(=O)c2nc(-c3c[nH]c4ccc(F)cc34)no2)c2cc(F)ccc21
2. O=C(C(=O)c1ccc2c(c1)OCO2)c1ccc2c(c1)OCO2

(A)
["96.1% (inactive)", "111% (inactive)"]

====

System: SF-539 CNS
Test: NCI-60 one-dose screen, 48 h
Settings: 10 µM unless noted
The panel holds about 83,000 compounds, 20% with a hit somewhere; the sample as a whole holds those more often. Activity calls are given as the source filed them. The calls were made as follows: active = growth percent below 10; inactive = the rest.
The reply should be one of these categories: True for active, False for inactive

Completed entries (count: 4):
CCn1c(Cc2ccccc2Nc2c(Cl)cccc2Cl)nnc1SCC(=O)NN1C(=O)/C(=C/c2cc(OC)c(O)c(OC)c2)SC1=S    False
COc1cc(-c2nc(C(=O)NCC(=O)NO)nn2-c2ccc(Cl)cc2)cc(OC)c1OC    False
NC(=NCCCOc1ccc(Cl)cc1)Nc1ccc(C(F)(F)F)cc1    False
CCCSc1ccc2nc(NC(=O)OC)[nH]c2c1    True

(Q) So what was the verdict on COc1ccc(C2Nc3c(c(C(C)(C)C)nn3-c3ccccc3)C(=O)CS2)cc1 (centres undefined) in this test?
(A) False

(Q) So what was the verdict on `Cc1ccc2c(c1)C(=O)/C(=C/c1cccc(OCC(=O)c3ccc(Cl)cc3)c1)CS2` in this test?
(A) False

(Q) So what was the verdict on `O=C1c2cc3c(cc2-c2c1c1cc(F)c(F)cc1c(=O)n2CCCn1ccnc1)OCO3` in this test?
(A) True

(Q) So what was the verdict on CSc1ccc(SC2c3ccc(C)cc3Oc3nc(N)c(C#N)c(N)c32)cc1 (centres undefined) in this test?
(A) True

(Q) So what was the verdict on `COc1cc2c(cc1-c1c(C)noc1C)ncc1nc(C3CCOCC3)n([C@H](C)COC(F)F)c12` in this test?
(A) False

====

Test system: IGROV1 ovarian
Assay: NCI-60 one-dose screen, 48 h (100 = growth as untreated, 0 = no growth, -100 = all killed)
Details: 10 µM unless noted
About 83,000 compounds went through this panel and 20% of them were active in at least one assay; those are over-represented in the sample as a whole.
quantityName: growth (%)
Give bare numbers, in %.

CSc1nc(NCCO)c(C#N)c(-c2cccc([N+](=O)[O-])c2)n1    97.9
CC(C)C1=C[C@@]23CC[C@@H]4[C@](C)(CCC[C@@]4(C)C(=O)N4CCCNCC4)[C@H]2C[C@@H]1[C@H]1C(=O)CCC(=O)[C@H]13    99.2
CCN(CC)c1ccc(/C=N\NC(=O)/C=C/C=C/c2ccc3c(c2)OCO3)c(O)c1    38.2

Can you give me growth for all of these, one by one?
1. O=C(N=Nc1c(O)[nH]c2ccccc12)c1cc(-c2ccccc2)on1
2. NC(=NCCCOc1ccc(Cl)cc1)Nc1ccc(C(F)(F)F)cc1

(A)
104
-20.5
